TESTED_ON: human COX-2 (143.98.2 from human osteosarcoma) (Homo sapiens, UniProt P35354)
Construct: human COX-2 (143.98.2 from human osteosarcoma); endogenous in cells; host or cells: 143.98.2 (human osteosarcoma)
Sequence (P35354 18-604): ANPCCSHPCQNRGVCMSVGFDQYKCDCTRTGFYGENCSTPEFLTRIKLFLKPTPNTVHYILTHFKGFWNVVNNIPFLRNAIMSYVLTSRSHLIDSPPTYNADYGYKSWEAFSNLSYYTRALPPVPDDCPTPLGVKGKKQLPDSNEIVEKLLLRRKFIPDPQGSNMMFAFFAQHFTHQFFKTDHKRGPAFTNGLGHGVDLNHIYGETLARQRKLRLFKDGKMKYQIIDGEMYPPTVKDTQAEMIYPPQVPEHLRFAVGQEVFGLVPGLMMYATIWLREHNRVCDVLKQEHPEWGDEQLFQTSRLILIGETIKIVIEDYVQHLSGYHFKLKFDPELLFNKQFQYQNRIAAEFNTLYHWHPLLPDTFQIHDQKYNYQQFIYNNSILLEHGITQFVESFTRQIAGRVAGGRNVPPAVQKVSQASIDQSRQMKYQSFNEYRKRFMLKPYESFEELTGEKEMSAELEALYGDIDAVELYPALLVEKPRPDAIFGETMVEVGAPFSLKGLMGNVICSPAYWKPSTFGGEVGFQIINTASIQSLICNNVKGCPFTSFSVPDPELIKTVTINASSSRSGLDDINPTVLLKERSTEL
ASSAY_OVERVIEW: Inhibition of COX-2 activity in human cell line (PGE2 production after arachidonic acid)
Format: cell-based
STATED_CONDITIONS: 0.1 μM test compound; 143.98.2 osteosarcoma cells; PGE2 after 10 μM arachidonic acid
Structures can show the parent of a compound that is named as a salt.
PROPERTY_NAME: inhibition at 0.1 µM (%)

                                   compound         property_name  endpoint_value
0  CCCc1ccc(-c2c(Cl)ncn2-c2ccc(S(C)(=O)=O)cc2)cc1  inhibition at 0.1 µM              48
1  COc1ccc(-c2c(Cl)ncn2-c2ccc(S(C)(=O)=O)cc2)cc1Cl  inhibition at 0.1 µM              92
2  CCOc1ccc(-c2c(Cl)ncn2-c2ccc(S(C)(=O)=O)cc2)cc1Cl  inhibition at 0.1 µM              87
3  CCOc1ccc(-c2c(Cl)ncn2-c2ccc(S(N)(=O)=O)cc2)cc1F  inhibition at 0.1 µM              65
4  CCOc1ccc(-c2c(Cl)ncn2-c2ccc(S(C)(=O)=O)cc2)cc1F  inhibition at 0.1 µM              76

I = CC(C)Oc1ccc(-c2c(Cl)ncn2-c2ccc(S(C)(=O)=O)cc2)cc1
II = COc1c(Cl)cc(-c2c(Cl)ncn2-c2ccc(S(N)(=O)=O)cc2)cc1Cl [Example 15, Hydrochloride]
Between I and II , which one has the lower reported inhibition at 0.1 µM value? Returns: label corresponding to the selected item.
I
(I: 52%, II: 90%)

Cited source: patent US6743816B2
